Reference for the values: PubChem BioAssay (NCI)

# Test system: MDA-MB-231 breast
# Procedure Text: NCI tumour cell line growth inhibition, 48 h
Item-by-item account of GI50

[
  {
    "Molecule": "N/C(=N\\OC(=O)c1ccccc1)C(Cc1ccccc1)C(=O)NOC(=O)c1ccccc1 (configuration not stated)",
    "GI50": "4.6 µM"
  },
  {
    "Molecule": "O=c1c2cc(F)ccc2sc2c(NCCCNCCO)nc3ccccc3c12",
    "GI50": "1.56 µM"
  },
  {
    "Molecule": "COc1cc(C(=O)Nc2cc(O)c(CC=C(C)C)c(O)c2)cc2c1O[C@]1(C)CC[C@@H](O)C(C)(C)[C@H]1C2",
    "GI50": "1.16 µM"
  },
  {
    "Molecule": "COC(=O)c1cc(-c2ccc(OC)c(OC)c2)[nH]c1N/N=C/c1c(Cl)cccc1Cl",
    "GI50": "1.31 µM"
  },
  {
    "Molecule": "COc1ccc2c(c1)C(=O)c1c-2c(OCCN(C)C)nc2ccccc12",
    "GI50": "4.02 µM"
  },
  {
    "Molecule": "COc1cc2c(cc1F)C(c1ccccc1Cl)=Nc1c(n[nH]c1C)N2",
    "GI50": "2.12 µM"
  },
  {
    "Molecule": "CN1CCN(CCCCCN=c2cc3c(=O)n(CCCCCN4CCN(C)CC4)c(=O)c4c(NCCCCCN5CCN(C)CC5)cc5c(O)n(CCCCCN6CCN(C)CC6)c(=O)c2c5c4-3)CC1",
    "GI50": "2.38 µM"
  }
]

----------
# Test system: HOP-92 NSCLC
# Procedure Text: NCI tumour cell line growth inhibition, 48 h
Item-by-item account of TGI
Observed Property: TGI

[
  {
    "Compound": "N#CCCC1(CCC#N)CCCCCCCCC(CCC#N)(CCC#N)C(O)C1O (centres undefined)",
    "Observed Property": "TGI",
    "Value Reported": "> 100 µM"
  },
  {
    "Compound": "c1cc(-c2cn3c(n2)SCC3)ccn1",
    "Observed Property": "TGI",
    "Value Reported": "> 100 µM"
  },
  {
    "Compound": "COc1cc(C2(C)SCCCS2)cc(OC)c1OC",
    "Observed Property": "TGI",
    "Value Reported": "> 100 µM"
  },
  {
    "Compound": "Cc1ccncc1C(N)=O",
    "Observed Property": "TGI",
    "Value Reported": "> 100 µM"
  },
  {
    "Compound": "FC(F)(F)c1cccc(-c2nn3ncccc3c2-c2ccnc(Nc3ccc4c(c3)OCCO4)n2)c1",
    "Observed Property": "TGI",
    "Value Reported": "> 25 µM"
  },
  {
    "Compound": "N#CCN1C(=O)c2cc([N+](=O)[O-])cc3cc([N+](=O)[O-])cc(c23)C1=O",
    "Observed Property": "TGI",
    "Value Reported": "32.5 µM"
  },
  {
    "Compound": "CN(CCCNC(=O)c1cc(-c2ccccc2)nc2ccccc12)CCCNC(=O)c1cc(-c2ccccc2)nc2ccccc12",
    "Observed Property": "TGI",
    "Value Reported": "9.85 µM"
  },
  {
    "Compound": "COc1ccc(CNc2cc(=O)n(C)c(=O)[nH]2)cc1",
    "Observed Property": "TGI",
    "Value Reported": "> 100 µM"
  },
  {
    "Compound": "O=C(Nc1ccccc1OC(=O)c1ccccc1)c1ccccc1",
    "Observed Property": "TGI",
    "Value Reported": "> 100 µM"
  },
  {
    "Compound": "CCc1c(C)nc2sc3c(N)ncnc3c2c1C",
    "Observed Property": "TGI",
    "Value Reported": "> 25 µM"
  },
  {
    "Compound": "C=CCc1cc(Nc2c3ccc(Cl)cc3nc3ccc(OC)cc23)cc(CN(CC)CC)c1O",
    "Observed Property": "TGI",
    "Value Reported": "4.04 µM"
  },
  {
    "Compound": "Fc1ccc(/C=N/n2c(-c3ccc(F)c(Cl)c3)n[nH]c2=S)cc1",
    "Observed Property": "TGI",
    "Value Reported": "34.6 µM"
  },
  {
    "Compound": "C=C1[C@@H](O)O[C@H]2[C@H]1C[C@H](OC(C)=O)[C@]13C(=O)O[C@H]4C[C@](C)(O)[C@H]([C@H]41)C31C=C(C)[C@]2(O)O1",
    "Observed Property": "TGI",
    "Value Reported": "> 100 µM"
  },
  {
    "Compound": "COc1ccc(Nc2ccnc(N3CCN(c4ccnc5cc(Cl)ccc45)CC3)n2)cc1",
    "Observed Property": "TGI",
    "Value Reported": "4.5 µM"
  },
  {
    "Compound": "C[N+](C)(C)c1ncnc2c1ncn2C1CCCO1 (centres undefined)",
    "Observed Property": "TGI",
    "Value Reported": "> 100 µM"
  },
  {
    "Compound": "COc1cc(CNc2nc3ccccc3nc2C(=O)O)cc(OC)c1OC",
    "Observed Property": "TGI",
    "Value Reported": "> 100 µM"
  },
  {
    "Compound": "CCOC(=O)C1CCCCN1C(=O)Cc1c[nH]c2ccccc12 (centres undefined)",
    "Observed Property": "TGI",
    "Value Reported": "> 100 µM"
  },
  {
    "Compound": "O=C(c1ccccc1)c1c(CC(O)c2ccncc2)n(C(=O)c2ccccc2)c2ccccc12 (centres undefined)",
    "Observed Property": "TGI",
    "Value Reported": "29.4 µM"
  },
  {
    "Compound": "COc1ccc2c3c1O[C@H](c1ccc(O)cc1)[C@H]3[N+](C)(C)CC2",
    "Observed Property": "TGI",
    "Value Reported": "> 100 µM"
  },
  {
    "Compound": "Oc1cc(-n2cccn2)c(O)cc1-n1cccn1",
    "Observed Property": "TGI",
    "Value Reported": "39.8 µM"
  },
  {
    "Compound": "CC(=O)O[C@H]1CC[C@@]2(C)C(=CC[C@@H]3[C@@H]2CC[C@]2(C)c4nc(Cl)ccc4C[C@@H]32)C1",
    "Observed Property": "TGI",
    "Value Reported": "> 100 µM"
  },
  {
    "Compound": "N[C@H](COCc1ccccc1)c1ccccc1",
    "Observed Property": "TGI",
    "Value Reported": "62 µM"
  },
  {
    "Compound": "O=C1Cc2c([nH]c3ccc(C(=O)O)cc23)-c2ccccc2N1",
    "Observed Property": "TGI",
    "Value Reported": "> 100 µM"
  },
  {
    "Compound": "CCOC(=O)Cn1nnc2ccc(Nc3nc4ccccc4nc3-c3ccccc3)cc21",
    "Observed Property": "TGI",
    "Value Reported": "> 100 µM"
  },
  {
    "Compound": "CN=C(Nc1cccc(C(F)(F)F)c1)SCc1ccc(N=C=S)cc1",
    "Observed Property": "TGI",
    "Value Reported": "30.5 µM"
  },
  {
    "Compound": "COC(=O)C1CCC(=O)N1C(c1ccc2c(c1)OCO2)c1cc(OC)c(OC)c(OC)c1 (centres undefined)",
    "Observed Property": "TGI",
    "Value Reported": "> 100 µM"
  },
  {
    "Compound": "O=C(/C=C/c1ccc(Cl)c(Cl)c1)c1cccc2ccccc12",
    "Observed Property": "TGI",
    "Value Reported": "31.4 µM"
  },
  {
    "Compound": "CC(C)(CCC(C)(C)N1OC1c1ccccc1)N1OC1c1ccccc1 (centres undefined)",
    "Observed Property": "TGI",
    "Value Reported": "> 100 µM"
  },
  {
    "Compound": "COc1ccc(C(=O)/C=C/c2ccc(OCC#N)cc2)cc1",
    "Observed Property": "TGI",
    "Value Reported": "67.4 µM"
  }
]
